- subject_of_test: Human complement C1s enzyme (Homo sapiens)
- Construct: purified from human serum, Complement Technology, Inc; purchased Complement Technology, Inc; host or cells: human serum (plasma-derived natural protein)
- protocol_summary: Human C1s Enzyme Assay
- Type: biochemical
- test_context: Table 2; C1s purified from human serum, 1.16 nM; substrate Z-L-Lys-SBzl; read-out: C1s Protease Activity
result_type: IC50

Problem: So what does the record say about IC50 for CCCCOc1ccc(C(=O)NCC(=O)N2CCC[C@H]2C(=O)NCc2cc(C(=N)N)cs2)cc1 [Compound 78] ?
Result: < 100 nM

Problem: So what does the record say about IC50 for CCCCCCc1ccc(C(=O)NCC(=O)N2CCC[C@H]2C(=O)NCc2cc(C(=N)N)cs2)cc1 [Compound 75] ?
Result: < 100 nM

Problem: So what does the record say about IC50 for CO[C@@H]1C[C@H](C(=O)NCc2cc(C(=N)N)cs2)[C@H](C(=O)CNC(=O)c2ccc(Oc3ccccc3)cc2)C1 [Compound 61] ?
Result: > 1000 nM

Problem: So what does the record say about IC50 for N/C(=N\O)c1csc(CNC(=O)[C@@H]2CC3(CN2C(=O)CNC(=O)c2ccc(Oc4ccccc4)cc2)OCCO3)c1 [Compound 66] ?
Result: < 100 nM

Problem: So what does the record say about IC50 for Cc1cc(C(=O)NCC(=O)N2CC3(C[C@H]2C(=O)NCc2cc(C(=N)N)cs2)OCCO3)ccc1Oc1ccccc1 [Compound 47] ?
Result: < 100 nM

Problem: So what does the record say about IC50 for CCCCCCCCC(=O)NCC(=O)N1CCC[C@H]1C(=O)NCc1cc(C(=N)N)cs1 [Compound 85] ?
Result: < 100 nM

Problem: So what does the record say about IC50 for Cc1cc(C(=O)NCC(=O)N2CC3(C[C@H]2C(=O)NCc2cc4c(N)nccc4s2)OCCO3)ccc1Oc1ccccc1 [Compound 64] ?
Result: 100 to 1000 nM

* * *

Provide the reported IC50 of each item.
- subject_of_test: Human complement C1s enzyme (Homo sapiens, UniProt P09871)
- Construct: purified from human serum, Complement Technology, Inc; purchased Complement Technology, Inc; host or cells: human serum (plasma-derived natural protein)
- protocol_summary: Human C1s Enzyme Assay
- Type: biochemical
- test_context: Table 2; C1s purified from human serum, 1.16 nM; substrate Z-L-Lys-SBzl; read-out: C1s Protease Activity
- Experimental: Example 4. Human C1s Enzyme Assay Human complement C1s enzyme (purified from human serum, Complement Technology, Inc.) at 1.16 nM final concentration is incubated with test compound at various concentrations for 5 min at room temperature in 50 mM Tris, 1 M NaCl, pH 7.5. A synthetic substrate Z-L-Lys-SBzl and DTNB (Ellman's reagent) are added to final concentrations of 100 μM each. Absorbance at 405 nm (A405) is recorded at 30 second intervals for 30 min using a microplate spectrophotometer. […]

Problem: Identify the measured IC50 of CCCCCC(=O)NCC(=O)N1CCC[C@H]1C(=O)NCc1cc(C(=N)N)cs1 [Compound 82] for Human complement C1s enzyme (Homo sapiens, UniProt P09871).
Result: 100 to 1000 nM

Problem: Identify the measured IC50 of N#C/N=C(\N)c1csc(CNC(=O)[C@@H]2CC3(CN2C(=O)CNC(=O)c2ccc(Oc4ccccc4)cc2)OCCO3)c1 [Compound 63] for Human complement C1s enzyme (Homo sapiens, UniProt P09871).
Result: < 100 nM

Problem: Identify the measured IC50 of N=C(N)c1csc(CNC(=O)[C@@H]2CCCN2C(=O)CCC2(c3ccc(Oc4ccccc4)cc3)CC2)c1 [Compound 44] for Human complement C1s enzyme (Homo sapiens, UniProt P09871).
Result: > 1000 nM

Problem: Identify the measured IC50 of CN(C)CCCCC(=O)NCC(=O)N1CCC[C@H]1C(=O)NCc1cc(C(=N)N)cs1 [Compound 70] for Human complement C1s enzyme (Homo sapiens, UniProt P09871).
Result: > 1000 nM

* * *

- subject_of_test: Human complement C1s enzyme (Homo sapiens, UniProt P09871)
- Construct: purified from human serum, Complement Technology, Inc; purchased Complement Technology, Inc; host or cells: human serum (plasma-derived natural protein)
- protocol_summary: Human C1s Enzyme Assay
- Assay type: biochemical
- test_context: Table 2; C1s purified from human serum, 1.16 nM; substrate Z-L-Lys-SBzl; read-out: C1s Protease Activity
result_type: IC50

Problem: Identify the measured IC50 of CCOc1ccc(C(=O)NCC(=O)N2CCC[C@H]2C(=O)NCc2cc(C(=N)N)cs2)cc1 for Human complement C1s enzyme (Homo sapiens, UniProt P09871).
Result: 0.1 to 1 µM

Problem: Identify the measured IC50 of Cc1cc(C(=O)NCC(=O)N2CC3(CCCC3)C[C@H]2C(=O)NCc2cc(C(=N)N)cs2)ccc1Oc1ccccc1 for Human complement C1s enzyme (Homo sapiens, UniProt P09871).
Result: < 0.1 µM

Problem: Identify the measured IC50 of N=C(N)c1csc(CNC(=O)[C@@H]2CCCN2CCCC(=O)c2ccc(Oc3ccccc3)cc2)c1 for Human complement C1s enzyme (Homo sapiens, UniProt P09871).
Result: > 1 µM

Problem: Identify the measured IC50 of CCCCCCCCCC(=O)NCC(=O)N1CCC[C@H]1C(=O)NCc1cc(C(=N)N)cs1 for Human complement C1s enzyme (Homo sapiens, UniProt P09871).
Result: < 0.1 µM

Problem: Identify the measured IC50 of C[C@H](OCc1ccccc1)[C@H](OCc1ccccc1)[C@@H](OCc1ccccc1)[C@H](CN(CC(=O)N1CC2(C[C@H]1C(=O)NCc1cc(C(=N)N)cs1)OCCO2)C(=O)OCc1ccccc1)OCc1ccccc1 for Human complement C1s enzyme (Homo sapiens, UniProt P09871).
Result: > 1 µM

Problem: Identify the measured IC50 of CC(N)c1csc(CNC(=O)[C@@H]2CCCN2C(=O)CNC(=O)c2ccc(Oc3ccccc3)cc2)c1 (stereo partly drawn) for Human complement C1s enzyme (Homo sapiens, UniProt P09871).
Result: > 1 µM

Problem: Identify the measured IC50 of Cc1cc(C(=O)NCC(=O)N2CC3(C[C@H]2C(=O)NCc2nc(C(=N)N)cs2)OCCO3)ccc1Oc1ccccc1 for Human complement C1s enzyme (Homo sapiens, UniProt P09871).
Result: < 0.1 µM

Problem: Identify the measured IC50 of N=C(N)c1csc(CNC(=O)[C@@H]2CCCN2C(=O)CNC(=O)c2ccc(Cc3ccccc3)cc2)c1 for Human complement C1s enzyme (Homo sapiens, UniProt P09871).
Result: < 0.1 µM

Problem: Identify the measured IC50 of CN(C)CCCC(=O)NCC(=O)N1CCC[C@H]1C(=O)NCc1cc(C(=N)N)cs1 for Human complement C1s enzyme (Homo sapiens, UniProt P09871).
Result: > 1 µM

* * *

- subject_of_test: Human complement C1s enzyme (Homo sapiens)
- Construct: purified from human serum, Complement Technology, Inc; purchased Complement Technology, Inc; host or cells: human serum (plasma-derived natural protein)
- Sequence (P09871 438-688 limits assumed): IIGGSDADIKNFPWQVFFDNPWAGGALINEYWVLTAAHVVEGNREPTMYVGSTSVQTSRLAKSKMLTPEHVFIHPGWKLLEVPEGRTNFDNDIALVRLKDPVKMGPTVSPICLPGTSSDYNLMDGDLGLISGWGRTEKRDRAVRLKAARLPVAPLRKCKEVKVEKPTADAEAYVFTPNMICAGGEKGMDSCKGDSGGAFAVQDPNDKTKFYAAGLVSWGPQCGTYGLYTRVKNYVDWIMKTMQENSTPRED
- Sequence (P09871 16-437 partner limits assumed): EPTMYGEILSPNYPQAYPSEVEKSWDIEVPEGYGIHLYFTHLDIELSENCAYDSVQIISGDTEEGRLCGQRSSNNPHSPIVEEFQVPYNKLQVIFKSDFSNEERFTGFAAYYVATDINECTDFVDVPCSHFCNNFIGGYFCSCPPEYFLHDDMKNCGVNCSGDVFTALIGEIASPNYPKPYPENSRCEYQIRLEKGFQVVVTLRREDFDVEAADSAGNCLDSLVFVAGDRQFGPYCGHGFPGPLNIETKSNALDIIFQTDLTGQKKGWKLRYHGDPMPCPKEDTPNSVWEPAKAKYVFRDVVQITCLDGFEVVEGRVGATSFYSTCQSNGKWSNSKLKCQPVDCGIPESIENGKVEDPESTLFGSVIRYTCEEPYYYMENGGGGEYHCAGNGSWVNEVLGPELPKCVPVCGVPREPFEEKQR
- protocol_summary: Human C1s Enzyme Assay
- Type: biochemical
- test_context: Table 3; C1s purified from human serum, 1.16 nM; substrate Z-L-Lys-SBzl; read-out: C1s Protease Activity
pIC50: −log10 of the molar value.
Provide the reported pIC50 of each item.

Problem: So what does the record say about pIC50 for C[C@@]12C[C@@H]1N(C(=O)CNC(=O)c1ccc(Oc3ccc(S(F)(F)(F)(F)F)cc3)cc1)[C@H](C(=O)NCc1cc(C(=N)N)cs1)C2 ?
Result: > 7.00

Problem: So what does the record say about pIC50 for N=C(N)c1csc(CNC(=O)[C@@H]2C[C@H](Oc3cccc(F)c3)CN2C(=O)CNC(=O)c2ccc(Oc3ccccc3)cc2)c1 ?
Result: > 7.00

Problem: So what does the record say about pIC50 for Cc1ccccc1O[C@H]1C[C@@H](C(=O)NCc2cc(C(=N)N)cs2)N(C(=O)CNC(=O)c2ccc(Oc3ccccc3)cc2)C1 ?
Result: > 7.00

Problem: So what does the record say about pIC50 for N=C(N)c1csc(NC(=O)[C@@H]2CC3(CN2C(=O)CNC(=O)c2ccc(Oc4ccccc4)cc2)OCCO3)c1 ?
Result: < 6.00

Problem: So what does the record say about pIC50 for N=C(N)c1csc(CNC(=O)[C@@H]2C[C@@H](C(F)(F)F)CN2C(=O)CNC(=O)c2ccc(Oc3ccccc3)cc2)c1 ?
Result: > 7.00

Problem: So what does the record say about pIC50 for N=C(N)c1csc(CNC(=O)[C@@H]2C[C@](F)(CF)CN2C(=O)CNC(=O)c2ccc(Oc3ccccc3)cc2)c1 ?
Result: > 7.00

Problem: So what does the record say about pIC50 for Cc1cccc(O[C@H]2C[C@@H](C(=O)NCc3cc(C(=N)N)cs3)N(C(=O)CNC(=O)c3ccc(Oc4ccccc4)cc3)C2)c1 ?
Result: > 7.00

Problem: So what does the record say about pIC50 for N=C(N)c1ccc(CNC(=O)[C@@H]2CC3(CN2C(=O)CNC(=O)c2ccc(Oc4ccccc4)cc2)OCCO3)s1 ?
Result: > 7.00

Problem: So what does the record say about pIC50 for N=C(N)c1csc(CNC(=O)[C@@H]2C[C@@H](OC(F)F)CN2C(=O)CNC(=O)c2ccc(Oc3ccccc3)cc2)c1 ?
Result: > 7.00

Problem: So what does the record say about pIC50 for N=C(N)c1csc(CNC(=O)C2C3CCC(C3)N2C(=O)CNC(=O)c2ccc(Oc3ccccc3)cc2)c1 (stereo in doubt) ?
Result: > 7.00

Problem: So what does the record say about pIC50 for N=C(N)c1csc(CNC(=O)[C@@H]2C[C@@H](c3ccccc3)CN2C(=O)CNC(=O)c2ccc(Oc3ccccc3)cc2)c1 ?
Result: > 7.00

Problem: So what does the record say about pIC50 for N=C(N)c1csc(CNC(=O)[C@@H]2C[C@H](C(F)(F)F)CN2C(=O)CNC(=O)c2ccc(Oc3ccccc3)cc2)c1 ?
Result: > 7.00

Problem: So what does the record say about pIC50 for C[C@@]12C[C@@H]1N(C(=O)CNC(=O)c1ccc(Oc3ccccc3)cc1)[C@H](C(=O)NCc1ccc(C(=N)N)s1)C2 ?
Result: > 7.00

Problem: So what does the record say about pIC50 for N=C(N)c1csc(CNC(=O)[C@@H]2C[C@H](Oc3ccc(F)cc3)CN2C(=O)CNC(=O)c2ccc(Oc3ccccc3)cc2)c1 ?
Result: > 7.00

Problem: So what does the record say about pIC50 for C[C@@]12C[C@@H]1N(C(=O)CNC(=O)c1ccc(Oc3ccccc3)cc1)[C@H](C(=O)NCc1cc(/C(N)=N/O)cs1)C2 ?
Result: < 6.00

Problem: So what does the record say about pIC50 for N=C(N)c1csc(CNC(=O)[C@@H]2C[C@@H]3CCCC[C@@H]3N2C(=O)CNC(=O)c2ccc(Oc3ccccc3)cc2)c1 ?
Result: > 7.00

Problem: So what does the record say about pIC50 for C[C@@]12C[C@@H]1N(C(=O)CNC(=O)c1ccc(Oc3ccccc3)cc1)[C@H](C(=O)NCc1cc(C#N)cs1)C2 ?
Result: < 6.00
